Molecular target: Mineralocorticoid receptor (Homo sapiens, UniProt P08235)
Sequence (P08235 whole entry, the tested form may be a part): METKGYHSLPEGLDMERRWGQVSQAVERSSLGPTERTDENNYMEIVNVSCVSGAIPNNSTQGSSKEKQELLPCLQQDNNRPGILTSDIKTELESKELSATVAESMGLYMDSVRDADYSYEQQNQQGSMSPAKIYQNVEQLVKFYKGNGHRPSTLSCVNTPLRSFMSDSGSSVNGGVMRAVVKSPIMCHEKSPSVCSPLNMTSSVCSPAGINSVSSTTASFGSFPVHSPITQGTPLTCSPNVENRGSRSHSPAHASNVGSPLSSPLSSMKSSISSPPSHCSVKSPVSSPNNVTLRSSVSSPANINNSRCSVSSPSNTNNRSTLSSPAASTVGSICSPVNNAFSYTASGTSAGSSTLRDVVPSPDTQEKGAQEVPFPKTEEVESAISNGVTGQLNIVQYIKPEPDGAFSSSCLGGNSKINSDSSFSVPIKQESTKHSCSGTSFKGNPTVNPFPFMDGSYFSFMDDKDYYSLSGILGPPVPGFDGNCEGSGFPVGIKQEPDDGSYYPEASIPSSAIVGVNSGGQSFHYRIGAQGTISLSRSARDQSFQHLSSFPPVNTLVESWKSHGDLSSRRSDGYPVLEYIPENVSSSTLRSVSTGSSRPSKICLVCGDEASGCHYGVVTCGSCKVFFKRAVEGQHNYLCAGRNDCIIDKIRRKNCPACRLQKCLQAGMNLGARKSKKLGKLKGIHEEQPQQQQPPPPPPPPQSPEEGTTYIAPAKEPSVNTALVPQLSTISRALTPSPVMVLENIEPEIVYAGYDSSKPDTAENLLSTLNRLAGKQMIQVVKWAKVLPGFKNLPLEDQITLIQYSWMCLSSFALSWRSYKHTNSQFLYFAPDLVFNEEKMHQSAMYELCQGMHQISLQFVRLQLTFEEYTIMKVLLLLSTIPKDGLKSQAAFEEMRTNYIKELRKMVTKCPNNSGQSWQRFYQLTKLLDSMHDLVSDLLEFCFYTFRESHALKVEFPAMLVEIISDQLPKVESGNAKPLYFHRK
Experiment: Antagonist activity at human mineralocorticoid receptor ligand binding domain expressed in human Huh7 cells after 16 hrs by luciferase reporter gene assay in absence of serum
Type: cell-based, Huh-7
pIC50: −log10 of the molar value.
assay-readout: pIC50

INSERT INTO results (molecule_smiles, test_result) VALUES
  ('Cc1cn(-c2ccc(CNS(=O)(=O)c3cc(F)ccc3F)cc2)c(C)n1', 6.25);

====

Test: Apparent intrinsic clearance in human liver microsomes
Format: ADME
Settings: read-out: CLH(app)
Listed next: entries and their corresponding log10 of microsomal CLint.
assay-readout: log10 of microsomal CLint (log10 of the value in µL/min/mg)

INSERT INTO assay_data (molecule_smiles, test_result) VALUES
  ('Cc1cn(-c2ccc(CNS(=O)(=O)c3cc(F)ccc3F)cc2)c(C)n1', 1.43),
  ('Cc1noc(C)c1S(=O)(=O)NCc1ccc(-c2cncc(C#N)c2)cc1', 1.40),
  ('Cc1nccn1-c1ccc(CNS(=O)(=O)c2cc(F)ccc2F)cc1F', 1.69),
  ('COc1ccc(C#N)cc1-c1ccc(CNS(=O)(=O)c2c(C)noc2C)cc1', 2.30),
  ('Cc1ccccc1S(=O)(=O)NCc1ccc(-n2ccnc2C)cc1', 1.72),
  ('Cc1nccn1-c1ccc(CNS(=O)(=O)c2ccccc2Cl)cc1', 1.61),
  ('Cc1noc(C)c1S(=O)(=O)NCc1ccc(-c2cccnc2)cc1', 1.93),
  ('Cc1nccn1-c1ccc(CNS(=O)(=O)c2ccc(F)cc2F)cc1', 1.45),
  ('Cc1nccn1-c1ccc(CNS(=O)(=O)c2ccccc2F)cc1', 1.26),
  ('Cc1noc(C)c1S(=O)(=O)NCc1ccc(-c2cccc(NS(C)(=O)=O)c2)cc1', 1.59),
  ('Cc1nccn1-c1ccc(CNS(=O)(=O)c2cc(F)ccc2F)cc1', 1.48),
  ('Cc1noc(C)c1S(=O)(=O)NCc1ccc(-c2ccccc2)s1', 2.43),
  ('Cc1noc(C)c1S(=O)(=O)NCc1ccc(-c2ccccc2)cc1', 2.31),
  ('Cc1noc(C)c1S(=O)(=O)NCc1ccc(-n2ccnc2C)cc1', 1.23);
